- System: Pseudomonas aeruginosa
- assay_protocol: Antimicrobial activity against Pseudomonas aeruginosa ATCC 9027 by broth dilution method
- Assay type: functional
readout_kind: MIC (µg/mL)
Give just the numeric value; µg/mL need not be written.

Sample answers from the record:
compound	readout_kind	numeric_value
C[C@H]1COc2c(N3CCN(C)CC3)c(F)cc3c(=O)c(C(=O)O)cn1c23.C[C@H]1COc2c(N3CCN(C)CC3)c(F)cc3c(=O)c(C(=O)O)cn1c23.O	MIC	0.3
COc1c(N2C[C@@H]3CCCN[C@@H]3C2)c(F)cc2c(=O)c(C(=O)O)cn(C3CC3)c12	MIC	0.7
CO/N=C1\CN(c2nc3c(cc2F)c(=O)c(C(=O)O)cn3C2CC2)CC1CN (centres undefined)	MIC	0.07

Please examine the following record next.
// returns reported MIC for input `O=C(O)c1cn(C2CC2)c2cc(N3CCNCC3)c(F)cc2c1=O`
0.07

====

- System: Haemophilus influenzae
- assay_protocol: Antimicrobial activity against Haemophilus influenzae ATCC 19418 by broth dilution method
- Format: functional
MIC vs 0.1 µg/mL: less than gives t; not less than gives f.

compound	class
COc1c(N2C[C@@H]3CCCN[C@@H]3C2)c(F)cc2c(=O)c(C(=O)O)cn(C3CC3)c12	t

Is MIC strictly under 0.1 µg/mL for the entry `O=C(O)c1cn(C2CC2)c2cc(N3CCNCC3)c(F)cc2c1=O` ?
f

Same again, this time with `COc1c(C)cc2c([nH]c3c2sc2c3c(=O)c(C(=O)O)cn2C2CC2)c1C`
f

Same again, this time with `Cc1ccc2c(c1)[nH]c1c2sc2c1c(=O)c(C(=O)O)cn2C1CC1`
f

Same again, this time with CO/N=C1\CN(c2nc3c(cc2F)c(=O)c(C(=O)O)cn3C2CC2)CC1CN (stereo not given)
t

====

- Test system: Staphylococcus epidermidis
- assay_protocol: Antimicrobial activity against quinilone-pencillin-resistant Staphylococcus epidermidis clinical isolate by broth dilution method
- Assay type: functional
MIC vs 3 µg/mL: less than gives T; not less than gives F.

Completed entries (count: 4):
compound	class
O=C(O)c1cn(C2CC2)c2sc3c4ccc(F)cc4[nH]c3c2c1=O	T
COc1ccc2c(c1)[nH]c1c2sc2c1c(=O)c(C(=O)O)cn2C1CC1	F
C[C@H]1COc2c(N3CCN(C)CC3)c(F)cc3c(=O)c(C(=O)O)cn1c23.C[C@H]1COc2c(N3CCN(C)CC3)c(F)cc3c(=O)c(C(=O)O)cn1c23.O [LEVOFLOXACIN]	F
Cc1ccc2c(c1)[nH]c1c2sc2c1c(=O)c(C(=O)O)cn2C1CC1	F

In the following, a different compound is considered.
Is MIC strictly under 3 µg/mL for the entry CO/N=C1\CN(c2nc3c(cc2F)c(=O)c(C(=O)O)cn3C2CC2)CC1CN (configuration not stated) [GEMIFLOXACIN] ?
F

====

- System: Staphylococcus aureus
- assay_protocol: Antimicrobial activity against Staphylococcus aureus ATCC 6538 by broth dilution method
- Assay type: functional
Measured MIC of individual entries
Give just the numeric value; µg/mL need not be written.

Sample answers from the record:
compound	value_units	numeric_value
O=C(O)c1cn(C2CC2)c2sc3c4ccccc4[nH]c3c2c1=O	µg/mL	0.003
CO/N=C1\CN(c2nc3c(cc2F)c(=O)c(C(=O)O)cn3C2CC2)CC1CN (centres undefined) [GEMIFLOXACIN]	µg/mL	0.015

// returns reported MIC for input `COc1ccc2c(c1)[nH]c1c2sc2c1c(=O)c(C(=O)O)cn2C1CC1`
0.015

Origin of measurements: ChEMBL document CHEMBL1765022
